// provenance: ChEMBL document CHEMBL5058577

# Test system: U2OS
# protocol-details: Multiplex assay against U2OS
# Format: toxicity, cell-based
# experimental-context: human, 12 h, 10 µM, compound concentration 10 uM, replicate 2
reported-property: Population Membrane Permeable-Phenotype (%)

Observe how each entry below is paired with its result.
O=C(NCCN1CCC(n2c(=O)[nH]c3cc(Cl)ccc32)CC1)c1ccc(F)cc1 [HALOPEMIDE]
26%
Cc1noc(-c2ccc(-c3ccc(CC(=O)O)cc3)cc2)c1NC(=O)O[C@H](C)c1ccccc1Cl
6%
Cc1c(CC(=O)O)c2cccnc2n1Cc1ccc(S(C)(=O)=O)cc1C(F)(F)F
8%
CN(C)C(=O)Cn1cc(-c2ccc(-c3cncc4ccccc34)cc2)cn1
22%
N#Cc1c(Oc2cccc(OS(=O)(=O)CCCC(F)(F)F)c2)cccc1C(F)(F)F
21%
CCc1cc2cc(NS(=O)(=O)c3ccc(C#N)cc3)ccc2n(CC)c1=O
6%
C[C@H](N)COC(=O)[C@@H](CCCCN)NC(=O)Cc1c(-c2ccc3ccccc3c2)[nH]c2c1ccc1ccccc12
17%
Cl.NCCc1ccc(O)c(O)c1 [DOPAMINE HYDROCHLORIDE]
4%
CC(C)(C)c1cc(NC(=O)Nc2ccc(-c3cn4c(n3)sc3cc(OCCN5CCOCC5)ccc34)cc2)no1
62%
COc1ccccc1N1CCN(C[C@@H](C(=O)NC(C)(C)C)c2ccccc2)CC1.Cl.Cl
49%

Give measured Population Membrane Permeable-Phenotype (%) for every item shown.
1. Cc1cnc(-c2cc(N3CCN(C(=O)CCS(C)(=O)=O)CC3)ncc2Cl)c(C)c1
2. N#Cc1cc(F)cc(-c2nc(-c3ccc(F)cn3)no2)c1
3. COc1cccc2c1c(NS(=O)(=O)c1ccc(Cl)s1)nn2Cc1cccc(CNC(=O)C(C)(C)O)c1

20%
7%
8%
